# Target under test: hα7-wt nAChR-expressing GH4Cl cells (Homo sapiens, UniProt P36544)
# Construct: expressed in transfected cells
# Sequence (P36544 23-502): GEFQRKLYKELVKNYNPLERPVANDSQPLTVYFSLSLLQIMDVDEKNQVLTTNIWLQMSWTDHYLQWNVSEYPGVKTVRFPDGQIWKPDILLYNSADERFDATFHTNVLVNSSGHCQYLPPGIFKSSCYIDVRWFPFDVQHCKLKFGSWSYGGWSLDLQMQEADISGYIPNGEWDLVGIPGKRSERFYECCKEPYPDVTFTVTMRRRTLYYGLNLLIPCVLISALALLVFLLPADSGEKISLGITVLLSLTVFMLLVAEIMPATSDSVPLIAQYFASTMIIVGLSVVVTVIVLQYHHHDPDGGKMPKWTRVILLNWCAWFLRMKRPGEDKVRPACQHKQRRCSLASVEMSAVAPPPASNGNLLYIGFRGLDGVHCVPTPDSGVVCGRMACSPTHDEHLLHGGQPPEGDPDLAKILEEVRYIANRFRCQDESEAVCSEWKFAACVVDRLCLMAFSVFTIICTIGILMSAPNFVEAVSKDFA
# Protocol details: Patch-clamp current recording (whole-cell), potentiation of choline 1 mM response, PAM type
# Type: cell-based
# Particulars: according to Ex. D.2; "<5" = no top plateau reached at maximal concentration; read-out: Potency (pEC50) (converted)
Grouping rule (EC50): lower band: < 200 nM; central band: ≥ 200 nM and < 700 nM; upper band: ≥ 700 nM

Solved cases (3 shown):
Molecule	Group
CNC(=O)CCc1nc(Nc2ccc(F)c(F)c2)nn1-c1ccc(OC)cc1 [E43]	upper band
CNC(=O)Cc1nc(Nc2ccc(F)c(F)c2F)nn1-c1cc(C)nc(C)c1 [E209]	upper band
CCNC(=O)Cc1nc(Nc2cc(Cl)cc(OC)c2)nn1-c1cc(C)nc(C)c1 [E219]	central band

The entry to classify is CC[C@H](O)Cc1nc(Nc2cc(Cl)cc(OC)c2)nn1-c1ccnc(C)c1 [E206] ; which class holds it? lower band

Kindly identify the class of Cc1ncccc1-n1nc(Nc2cccc(OC(F)(F)F)c2)nc1CCC(=O)N(C)C [E5] . upper band

Returns: class label. Input: CC[C@H](O)Cc1nc(Nc2ccc(OC)cc2)nn1-c1ccnc(C)c1 [E202] upper band

Category lookup for the molecule CCNC(=O)Cc1nc(Nc2ccc3c(c2)OC(F)(F)O3)nn1-c1cc(C)ncc1C [E163] upper band

Kindly identify the class of Cc1cncc(-n2nc(Nc3ccc4c(c3)OC(F)(F)O4)nc2CCC(=O)N(C)C)c1 [E119] . lower band

Which class is correct for the following molecule? CCOC(=O)CCc1nc(Nc2ccc(F)c(F)c2)nn1-c1ccc2c(c1)OCCO2 [E114] lower band

Category of COCCc1nc(Nc2ccc(F)c(C(F)(F)F)c2)nn1-c1ccnc(C)c1 [E13] : central band

###

# Target under test: hα7-wt nAChR-expressing GH4Cl cells (Homo sapiens)
# Construct: expressed in transfected cells
# Protocol details: Patch-clamp current recording (whole-cell), potentiation of choline 1 mM response, PAM type
# Assay type: cell-based
# Particulars: according to Ex. D.2; "<5" = no top plateau reached at maximal concentration; read-out: Potency (pEC50) (converted)
# Procedure: The compounds of the present invention are classified as type 1-4, based on qualitative kinetic properties, as determined by whole-cell voltage-clamp recordings. This classification is based on the effect of an α7 PAM compound, as described hereinbefore, on the signal elicited by an agonist application. In particular, said agonist is choline at a concentration of 1 mM. […]
Assay readout: EC50 (nM)
The reply should contain only the number, in nM.

In the examples that follow, each entry is paired with its recorded EC50.
Compound	EC50 [nM]
CC[C@H](O)Cc1nc(Nc2ccc(F)c(F)c2)nn1-c1cc(C)nc(C)c1	240
CN(C)C(=O)CCc1nc(Nc2cccc(OC(F)(F)F)c2)nn1-c1ccncc1	324
Cc1cc(-n2nc(Nc3ccc(F)c(C(F)(F)F)c3)nc2C(C)CO)ccn1 (stereo not drawn)	2240
CN(C)C(=O)CCc1nc(Nc2ccc(F)c(C(F)(F)F)c2)nn1-c1ccc2c(c1)OCCO2	39.8
CC[C@@H](O)Cc1nc(Nc2cc(OC)cc(C(F)(F)F)c2)nn1-c1ccc(C)nc1	3630
CC[C@H](O)Cc1nc(Nc2ccc(F)c(F)c2)nn1-c1cccnc1	2450
CN(C)C(=O)CCc1nc(Nc2ccc(F)c(F)c2)nn1-c1ccc(OC(F)(F)F)cc1	240
Cc1ccc(-n2nc(Nc3cccc(OC(F)(F)F)c3)nc2CCC(=O)N(C)C)cn1	186

Cc1cc(-n2nc(Nc3cccc(OC(F)(F)F)c3)nc2CC(=O)NC2CC2)cc(C)n1 has a reported EC50 of 331

The reported value for CNC(=O)Cc1nc(Nc2cc(F)cc(F)c2)nn1-c1cc(C)nc(C)c1 in terms of EC50 is 871

EC50 in this record for Cc1cc(-n2nc(Nc3ccc4c(c3)OC(F)(F)O4)nc2CC(=O)NCC2CC2)cc(C)n1 : 302

In plain terms, CNC(=O)CCc1nc(Nc2ccc(F)c(C(F)(F)F)c2)nn1-c1ccc(OC)c(OC)c1 has a documented EC50 of 1020

###

# Target under test: hα7-wt nAChR-expressing cells (Homo sapiens)
# Construct: expressed in transfected cells; host or cells: hα7-wt nAChR-expressing cells
# Protocol details: Ca2+ flux imaging (FDSS) (Protocol B), PAM activity with choline 100 μM
# Type: cell-based
# Particulars: according to Ex. D.1b; read-out: % Efficacy
# Description: Ca^2+ Flux Imaging (FDSS) (Protocol B) […] PAM activity was detected in real time by applying the compounds to be tested to the loaded cells along with a α7 nicotinic receptor agonist during constant monitoring of cellular fluorescence in a FDSS. […] A control response to choline was calculated on each plate from the difference in peak in fluorescence in wells receiving either choline or assay buffer alone. […]
Listed here: items and their measured Emax.
Answer format: numeric, % implied, no suffix.

Sample smiles	Assay readout	Measured result
CCNC(=O)Cc1nc(Nc2cc(F)c(F)c(F)c2)nn1-c1cc(C)nc(C)c1	Emax	658
CNC(=O)Cc1nc(Nc2cc(F)c(F)c(F)c2)nn1-c1cc(C)nc(C)c1	Emax	628
Cc1cc(-n2nc(Nc3ccc(F)c(F)c3)nc2C[C@@H](C)O)ccn1	Emax	808
CCNC(=O)Cc1nc(Nc2cc(F)cc(F)c2)nn1-c1cc(C)nc(C)c1	Emax	522
CNC(=O)CCc1nc(Nc2ccc(F)c(F)c2)nn1-c1ccc(Cl)cc1	Emax	495

So the reported Emax for COc1cc(Cl)cc(Nc2nc(CC(=O)NC3CC3)n(-c3cc(C)nc(C)c3)n2)c1 , on hα7-wt nAChR-expressing cells (Homo sapiens), turned out to be 620

So the reported Emax for Cc1cc(-n2nc(Nc3cc(F)cc(Cl)c3)nc2CC(=O)NC2CC2)cc(C)n1 , on hα7-wt nAChR-expressing cells (Homo sapiens), turned out to be 663

###

# Target under test: hα7-wt nAChR-expressing GH4Cl cells (Homo sapiens)
# Construct: expressed in transfected cells
# Protocol details: Patch-clamp current recording (whole-cell), potentiation of choline 1 mM response, PAM type
# Type: cell-based
# Particulars: according to Ex. D.2; "<5" = no top plateau reached at maximal concentration; read-out: Potency (pEC50) (converted)
Assay readout: EC50 (nM)
Give the number; nM is assumed, so skip it.

Reference set (8 entries):
Sample smiles	EC50 (nM)
CN(C)C(=O)CCc1nc(Nc2ccc(F)c(F)c2)nn1-c1cccc(Cl)c1	339
CN(C)C(=O)CCc1nc(Nc2cc(F)c(F)c(Br)c2)nn1-c1ccc2c(c1)OCCO2	38
CN(C)C(=O)CCc1nc(Nc2ccc(F)c(F)c2)nn1-c1ccccc1Cl	1070
Cc1cc(-n2nc(Nc3cccc(OC(F)(F)F)c3)nc2CCC(=O)N(C)C)ccn1	135
Cc1cc(-n2nc(Nc3ccc(F)c(Cl)c3)nc2CC(=O)NC2CC2)cc(C)n1	141
CNC(=O)CCc1nc(Nc2ccc(F)c(F)c2)nn1-c1cccc(Cl)c1	2570
Cc1cc(-n2nc(Nc3cccc(C(F)(F)F)c3)nc2CC(=O)NC2CC2)cc(C)n1	501
CNC(=O)Cc1nc(Nc2cc(F)cc(Cl)c2)nn1-c1cc(C)nc(C)c1	398

Readout EC50 for COc1cccc(-n2nc(Nc3ccc(F)c(C(F)(F)F)c3)nc2CCC(=O)N(C)C)c1 , test system hα7-wt nAChR-expressing GH4Cl cells (Homo sapiens), was 85.1

Value sought: EC50, system hα7-wt nAChR-expressing GH4Cl cells (Homo sapiens), item COc1cc(Nc2nc(C[C@H](C)O)n(-c3cccnc3)n2)cc(C(F)(F)F)c1 . Result: 2950

# EC50 measured on hα7-wt nAChR-expressing GH4Cl cells (Homo sapiens) for item Cc1cc(-n2nc(Nc3cccc(Cl)c3F)nc2CC(=O)NC2CCC2)c(C)cn1 = 1740

The compound CN(C)C(=O)CCc1nc(Nc2ccc3c(c2)OC(F)(F)O3)nn1-c1ccc2c(c1)OCCO2 , tested on hα7-wt nAChR-expressing GH4Cl cells (Homo sapiens), showed EC50 of 26.9

Noted EC50 for CC[C@H](O)Cc1nc(Nc2cc(Cl)cc(OC)c2)nn1-c1cc(C)nc(C)c1 , tested on hα7-wt nAChR-expressing GH4Cl cells (Homo sapiens): 155

###

# Target under test: hα7-wt nAChR-expressing GH4Cl cells (Homo sapiens, UniProt P36544)
# Construct: expressed in transfected cells
# Protocol details: Patch-clamp current recording (whole-cell), potentiation of choline 1 mM response, PAM type
# Assay type: cell-based
# Particulars: according to Ex. D.2; "<5" = no top plateau reached at maximal concentration; read-out: Potency (pEC50) (converted)
Checkbox rule: EC50 lower than 300 nM = label 1; EC50 not lower than 300 nM = label 0.

Sample smiles	Group
Cc1cc(-n2nc(Nc3ccc4c(c3)OC(F)(F)O4)nc2CC(=O)NC2CCC2)cc(C)n1	label 1
COc1ccc(-n2nc(Nc3ccc(F)c(C(F)(F)F)c3)nc2CCC(=O)N(C)C)cc1	label 1
Cc1cc(-n2nc(Nc3ccc(F)c(F)c3)nc2C[C@@H](C)O)ccn1	label 0
COc1ccc(-n2nc(Nc3ccc(F)c(C(F)(F)F)c3)nc2CCC(=O)N(C)C)cc1OC	label 1

Here's an entry: CCNC(=O)Cc1nc(Nc2ccc(F)c(F)c2)nn1-c1cc(C)nc(C)c1 . Is its EC50 below 300 nM? label 0
